# Assay Comment: Aqueous solubility (RP-HPLC after temperature cycling)
# Assay type: physicochemical
# Details: 25 °C, thermodynamic from solid; unbuffered water, final pH 3.8; temperature cycling
Where a name gives a salt, the structure may show the parent alone.

>  <Compound>
CCNC(=O)[C@H]1C[C@@](F)(c2ccc(CN3CCCC3)c(F)c2)C1 [tosylate salt]

>  <solubility at 25 h [mg/mL]>
23.6

$$$$

====

# Assay Comment: Aqueous solubility (RP-HPLC after temperature cycling)
# Assay type: physicochemical
# Details: aqueous buffer, thermodynamic from solid; 0.1M phosphate buffered saline, final pH 6.5; crystalline compound; temperature cycling 40/15/25° C.
Structures can show the parent of a compound that is named as a salt.
Property Name: solubility at 25 h

>  <Compound>
CCNC(=O)[C@H]1C[C@@](F)(c2ccc(CN3CCCC3)c(F)c2)C1 [tosylate salt]

>  <Property Name>
solubility at 25 h

>  <Observed Result>
> 10000 µg/mL

$$$$
